# Test Description: protein stability index of a GFP-peptide fusion (GPS, HEK-293T) (PSI 1-6); higher = more stable;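 note: 24-mer peptide tiles fused after GFP, lentivirally expressed, FACS-sorted into six equal bins by GFP/DsRed ratio, decoded by Illumina sequencing, PSI is the read-weighted mean bin number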
# Experimental Context: treatment: MLN4924 1 uM, 8 h; c terminus: a fixed tail appended
# if value of protein stability index reaches 3, tag 1; if it stays below, tag 0

INPUT: Evaluate SRVKGSAPEIDPSSDGSNFGWETK [KMT2E] : protein stability index at minimum 3?
OUTPUT: 1

---

# Test Description: protein stability index of a GFP-peptide fusion (GPS, HEK-293T) (PSI 1-6); higher = more stable
# Experimental Context: treatment: MLN4924 1 uM, 8 h; c terminus: a fixed tail appended
# if value of protein stability index reaches 4, tag Satisfied; if it stays below, tag Not satisfied

1) NKKYYKKFSIPDLDRHQLPLDDAL [DPCD] = Not satisfied
2) SFRRNVGRVLLANSTQADEGKTKK [FBXO34] = Satisfied
3) FLPDLLIFQMVIICLMCVHSLERA [SMG5] = Not satisfied
4) NTSLHVFVLDENDNAPAVLHPRPD [PCDHGC5] = Not satisfied
5) ISSTSTKRTYWPDLDAKIREALVL [PLD5] = Not satisfied

// next entry
INPUT: Evaluate PTPPGQYFYPRGGGSGGGAGGAGG [JUNB] : protein stability index at minimum 4?
OUTPUT: Satisfied
